Source: patent US20180057542A1

Please go through the items and note down their Surface Density (% relative to gpD).
Target: T1, urea-expanded bacteriophage lambda capsid shell (bacteriophage lambda, UniProt P03713 1-341; P03710 23-533)
T1 construct: also called expanded capsid; expanded capsid lattice
T1 sequence 1: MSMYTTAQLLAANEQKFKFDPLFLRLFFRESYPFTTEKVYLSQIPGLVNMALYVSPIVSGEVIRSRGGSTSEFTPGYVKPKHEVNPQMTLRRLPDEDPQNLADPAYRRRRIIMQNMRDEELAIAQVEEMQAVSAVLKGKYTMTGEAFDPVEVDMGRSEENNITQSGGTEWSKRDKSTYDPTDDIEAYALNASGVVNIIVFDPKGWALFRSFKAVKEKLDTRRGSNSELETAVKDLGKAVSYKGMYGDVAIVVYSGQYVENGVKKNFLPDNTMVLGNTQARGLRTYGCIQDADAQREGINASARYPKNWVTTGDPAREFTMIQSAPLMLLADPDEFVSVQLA
T1 sequence 2: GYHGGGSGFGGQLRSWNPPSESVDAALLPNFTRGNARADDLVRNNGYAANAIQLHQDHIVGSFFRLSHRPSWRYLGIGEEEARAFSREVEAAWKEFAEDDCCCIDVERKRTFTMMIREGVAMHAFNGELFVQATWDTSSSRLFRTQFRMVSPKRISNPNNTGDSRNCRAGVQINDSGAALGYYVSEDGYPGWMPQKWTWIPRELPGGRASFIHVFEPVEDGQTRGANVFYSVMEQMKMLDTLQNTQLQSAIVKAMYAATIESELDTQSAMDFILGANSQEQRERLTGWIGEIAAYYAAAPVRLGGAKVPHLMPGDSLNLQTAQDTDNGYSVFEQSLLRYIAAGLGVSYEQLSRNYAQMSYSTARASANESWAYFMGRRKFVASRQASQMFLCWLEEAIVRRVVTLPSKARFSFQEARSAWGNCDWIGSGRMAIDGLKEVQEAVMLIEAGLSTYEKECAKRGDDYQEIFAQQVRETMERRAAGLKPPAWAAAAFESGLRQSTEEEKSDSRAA
Assay: in vitro capsid decoration, SDS-PAGE of isolated decorated capsids

Consider the reported Surface Density (% relative to gpD) for these binders:
gpD(S42C::sMannose) (other, 6'-maleimidohexanamido-polyethyleneglycol mannoside (sMannose) on Cys42 (numbering without the N-terminal methionine), The presence of the H6 tag is therefore not certain; also called gpD-mannose; gpD glycoprotein) HHHHHHMTSKETFTHYQPQGNSDPAHTATAPGGLSAKAPAMTPLMLDTCSRKLVAWDGTTDGAAVGILAVAADQTSTTLTFYKSGTFRYEDVLWPEAASDETKKRTAFAGTAISIV | 82 % relative to gpD
wild-type bacteriophage lambda gpD decoration protein (other, Monomer in solution; adds to the expanded capsid as trimer spikes at the 140 three-fold axes (420 copies per shell); also called gpD-WT; gpD-wt) MTSKETFTHYQPQGNSDPAHTATAPGGLSAKAPAMTPLMLDTSSRKLVAWDGTTDGAAVGILAVAADQTSTTLTFYKSGTFRYEDVLWPEAASDETKKRTAFAGTAISIV | 100 % relative to gpD
H6-gpD-GFP (other, HIS-tagged fusion of an N-terminal gpD domain and a C-terminal GFP domain; also called gpD-Green Fluorescent Protein; GFP-tagged gpD) HHHHHHMTSKETFTHYQPQGNSDPAHTATAPGGLSAKAPAMTPLMLDTSSRKLVAWDGTTDGAAVGILAVAADQTSTTLTFYKSGTFRYEDVLWPEAASDETKKRTAFAGTAISIV | 77 % relative to gpD

Lab note: next binder to report on.
Using the record for gpD(S42C) (other) MTSKETFTHYQPQGNSDPAHTATAPGGLSAKAPAMTPLMLDTCSRKLVAWDGTTDGAAVGILAVAADQTSTTLTFYKSGTFRYEDVLWPEAASDETKKRTAFAGTAISIV , report its Surface Density (% relative to gpD).
90 % relative to gpD
